Task for the reader: assign each of the following compounds its reported log10 of IC50.
Molecular target: M-phase inducer phosphatase 1 (Homo sapiens)
Sequence (P30304 whole entry): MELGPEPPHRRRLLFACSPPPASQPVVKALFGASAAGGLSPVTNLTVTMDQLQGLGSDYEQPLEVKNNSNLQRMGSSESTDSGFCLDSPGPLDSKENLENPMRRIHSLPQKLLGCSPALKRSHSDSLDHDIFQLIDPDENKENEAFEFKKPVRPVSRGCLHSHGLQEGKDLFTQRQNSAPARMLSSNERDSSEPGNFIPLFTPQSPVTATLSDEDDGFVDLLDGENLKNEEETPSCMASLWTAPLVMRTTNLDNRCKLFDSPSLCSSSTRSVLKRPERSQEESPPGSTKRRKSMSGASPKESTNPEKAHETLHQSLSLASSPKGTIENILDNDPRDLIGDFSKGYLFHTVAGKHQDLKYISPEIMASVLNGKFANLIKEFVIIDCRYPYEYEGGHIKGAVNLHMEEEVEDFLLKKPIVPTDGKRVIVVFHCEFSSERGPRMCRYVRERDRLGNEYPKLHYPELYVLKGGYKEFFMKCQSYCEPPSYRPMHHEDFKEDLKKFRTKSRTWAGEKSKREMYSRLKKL
The common logarithm of IC50 in µM is what is listed.

Would you please look over these solved cases?
INSERT INTO measurements (compound, observed_measurement) VALUES
  ('CC(C)CCC[C@@H](C)[C@H]1CCC2[C@@](C)(COP(=O)(O)O)CCC[C@@]21C (stereo not given in full)', -0.15),
  ('CC(C)CCC[C@@H](C)[C@H]1CCC2[C@](C)(CO)CCC[C@@]21C (stereo not given in full)', 0.93),
  ('CC(C)CCC[C@@H](C)[C@H]1CCC2[C@@](C)(CCOP(=O)(O)O)CCC[C@@]21C (stereo not given in full)', 1.39);

For each listed entry, give its log10 of IC50.
1. CC(C)CCC[C@@H](C)[C@H]1CCC2[C@@](C)(CCO)CCC[C@@]21C (stereo not given in full)
2. CC(C)CCC[C@@H](C)[C@H]1CCC2/C(=C/C(=O)O)CCC[C@@]21C (stereo not given in full)

Solution:
1. 0.84
2. 1.24
